The measurements presented in this section are drawn from ChEMBL document CHEMBL1201862.

Test system: HOP-18
PROTOCOL_NOTES: NCI tumour cell line growth inhibition, 48 h
Calls of active or inactive are those of the source. Rule as the data show it: active = GI50 up to about 1.1 µM and inactive = higher.
Outcome codes: Y for active, N for inactive

- COMPOUND: "NC(=O)CC(N/C=C1/N=C(c2ccccc2)OC1=O)C(=O)O (configuration not stated)"
  CLASS_NAME: "N"
- COMPOUND: "Cc1ccc(C)c(N2C(=O)C(=O)C(c3nc4ccccc4o3)/C(=N\\NC(=O)c3ccccc3O)C2=O)c1 (configuration not stated)"
  CLASS_NAME: "N"
- COMPOUND: "COC(=O)C(C(=O)OC)C1CCCC(=O)C1 (configuration not stated)"
  CLASS_NAME: "N"
- COMPOUND: "C=CC1(NS(=O)(=O)c2ccc(C)cc2)CCC(C(C)(C)C)CC1 (configuration not stated)"
  CLASS_NAME: "N"
- COMPOUND: "Cc1nc(N)sc1C(=O)/C=C\\c1ccc2c(c1)OCO2"
  CLASS_NAME: "N"
- COMPOUND: "CC(=O)OCc1cc(=O)n(C)c2c3c4c(cc12)c(C)cc(=O)n4CO3"
  CLASS_NAME: "N"
- COMPOUND: "CC(C)(c1ccccc1)c1ccc(OC#N)cc1"
  CLASS_NAME: "N"
- COMPOUND: "N#C/C(=C\\c1ccc(CP(=O)(O)O)cc1)C(N)=O"
  CLASS_NAME: "N"
- COMPOUND: "O=C1C2=C(CC3C(C2)C3(Br)Br)C(=O)C2=C1CC1C(C2)C1(Br)Br (configuration not stated)"
  CLASS_NAME: "N"
- COMPOUND: "CN1N=C2NCCNC3=NN(C)/C(=N/CC/N=C/1S2)S3"
  CLASS_NAME: "N"
- COMPOUND: "Clc1ccc(C[P+](c2ccccc2)(c2ccccc2)c2ccccc2)cc1Cl"
  CLASS_NAME: "N"
- COMPOUND: "CC(C)(C)OC(=O)NC(Cc1ccccc1)C(=S)N1CCCC1 (configuration not stated)"
  CLASS_NAME: "N"
- COMPOUND: "Cn1c(/C=C/CO)c(CO)c2c1C(=O)C=C(N1CC1)C2=O [APAZIQUONE]"
  CLASS_NAME: "Y"
- COMPOUND: "CCOC(=O)c1ccc(/N=N\\c2ccc(N(CCC#N)CCC#N)cc2C)cc1"
  CLASS_NAME: "N"
- COMPOUND: "Cc1cc(NS(=O)(=O)c2ccc(NC(=O)c3cccc4c(Nc5ccc(S(=O)(=O)Nc6cc(C)on6)cc5)c5ccc(Cl)cc5nc34)cc2)no1"
  CLASS_NAME: "N"
- COMPOUND: "CN(CCCCN)c1ccc2c(=O)[nH][nH]c(=O)c2c1"
  CLASS_NAME: "N"
- COMPOUND: "CCCC1C(=O)CCc2c(OC)ccc(OC)c21 (configuration not stated)"
  CLASS_NAME: "N"
- COMPOUND: "CC(N)C(C)c1ccccc1 (configuration not stated)"
  CLASS_NAME: "N"
- COMPOUND: "COc1ccc(/C=C2\\C(=O)N(NC(C)=O)c3ccccc32)cc1"
  CLASS_NAME: "N"
- COMPOUND: "O=C1C(=Cc2ccc([N+](=O)[O-])o2)C(=O)N(CCc2ccccc2)S(=O)(=O)N1CCc1ccccc1"
  CLASS_NAME: "N"
- COMPOUND: "CCC(O)CCCCCCCCCCCCCCC(=O)O (configuration not stated)"
  CLASS_NAME: "N"
- COMPOUND: "CN(C)c1ccc(C(C#N)NNC(=O)Cc2ccccc2)cc1 (configuration not stated)"
  CLASS_NAME: "N"
